TGT: human epidermal growth factor receptor 2 (Homo sapiens, UniProt P04626)
PROTOCOL: SPR
Reported koff values for the following binders.

BINDER | koff
hu2C4-g2.1 IgG1 (antibody, V domains shown) VH: EVQLVESGGGLVQPGGSLRLSCAASGFTFTDYTMDWVRQAPGKGLEWVADVNPNSGGSIYNQRFKGRFTLSVDRSKNTLYLQMNSLRAEDTAVYYCARSSTPPFFMDYWGQGTLVTVSS VL: DIQMTQSPSSLSASVGDRVTITCKASQDVSIGVAWYQQKPGKAPKLLIYSASYRYTGVPSRFSGSGSGTDFTLTISSLQPEDFATYYCQQYYIYPYTFGQGTKVEIK | 0.00096 s⁻¹
hu2C4-g1.2 IgG1 (antibody, V domains shown) VH: EVQLVESGGGLVQPGGSLRLSCAASGFTFTDYTMDWVRQAPGKGLEWVADVNPNSGGSIYNQRFKGRFTLSVDRSKNTLYLQMNSLRAEDTAVYYCARAITNEVLLDYWGQGTLVTVSS VL: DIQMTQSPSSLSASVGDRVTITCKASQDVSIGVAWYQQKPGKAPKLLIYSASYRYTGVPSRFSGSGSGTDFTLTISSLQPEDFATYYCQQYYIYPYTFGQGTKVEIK | 0.0014 s⁻¹
hu2C4-g2.2 IgG1 (antibody, V domains shown) VH: EVQLVESGGGLVQPGGSLRLSCAASGFTFTDYTMDWVRQAPGKGLEWVADVNPNSGGSIYNQRFKGRFTLSVDRSKNTLYLQMNSLRAEDTAVYYCARSSRPPWFFDYWGQGTLVTVSS VL: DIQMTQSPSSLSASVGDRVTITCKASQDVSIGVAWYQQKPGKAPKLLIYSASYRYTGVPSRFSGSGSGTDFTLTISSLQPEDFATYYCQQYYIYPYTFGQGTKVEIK | 0.0015 s⁻¹

These measurements were taken from paper PMC7039645.
